# system: Platelet-activating factor receptor (Rattus norvegicus) (UniProt P46002)
# Sequence (P46002 whole entry): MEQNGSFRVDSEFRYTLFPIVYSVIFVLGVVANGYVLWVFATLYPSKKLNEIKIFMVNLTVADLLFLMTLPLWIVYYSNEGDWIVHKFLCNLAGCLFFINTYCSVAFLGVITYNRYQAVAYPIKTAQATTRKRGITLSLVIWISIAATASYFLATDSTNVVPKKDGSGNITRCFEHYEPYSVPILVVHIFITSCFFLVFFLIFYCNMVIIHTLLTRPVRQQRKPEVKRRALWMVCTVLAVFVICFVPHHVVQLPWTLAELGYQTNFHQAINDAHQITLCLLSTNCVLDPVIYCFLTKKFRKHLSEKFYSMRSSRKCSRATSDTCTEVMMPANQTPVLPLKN
# assayExplanation: Ability to block the effect of exogenously administered PAF upon intravenous administration in PAF-induced rat skin permeability assay
# Assay type: functional, organism-based
We begin with a simple list: items and their reported ED50.
reportedMetric: ED50 (mg/kg)

[[record]]
compound = "C#Cc1cccc2c1c(C(O)c1ccc(Cn3c(C)nc4cnccc43)c(F)c1)cn2C(=O)N(C)C (centres undefined)"
resultunits = "mg/kg"
boundoperator = "="
obsvalue = 0.007

[[record]]
compound = "COC(=O)c1ccc(C(=O)OC)c2c(C(=O)c3ccc(Cn4c(C)nc5cnccc54)cc3)c[nH]c12"
resultunits = "mg/kg"
boundoperator = "="
obsvalue = 0.035

[[record]]
compound = "COC(=O)c1cccc2c1c(C(=O)c1ccc(Cn3c(C)nc4c(C)nc(C)cc43)cc1)cn2C(=O)N(C)C"
resultunits = "mg/kg"
boundoperator = ">"
obsvalue = 1

[[record]]
compound = "CCOCCn1cc(C(=O)CN2CCC(n3c(C)nc4cnccc43)CC2)c2c(Cl)cccc21"
resultunits = "mg/kg"
boundoperator = "="
obsvalue = 0.068

